Below is a list of entries, each paired with its recorded cell viability value.
- System: U2OS
- Protocol Description: cell viability relative to DMSO; higher = less toxic
- Assay Context: 72 h; 1000 nM

>  <Chem Smiles>
N#C/C(=C\c1ccc(O)c(O)c1)C(=O)NCCCc1ccccc1

>  <Subject Of Test>
U2OS

>  <cell viability (%)>
99.1

$$$$
>  <Chem Smiles>
CSCC[C@H](NC(=O)[C@H](CC(C)C)NC(=O)CNC(=O)[C@H](Cc1ccccc1)NC(=O)[C@H](Cc1ccccc1)NC(=O)[C@H](CCC(N)=O)NC(=O)[C@H](CCC(N)=O)NC(=O)[C@@H]1CCCN1C(=O)[C@H](CCCCN)NC(=O)[C@@H]1CCCN1C(=O)[C@@H](N)CCCN=C(N)N)C(N)=O

>  <Subject Of Test>
U2OS

>  <cell viability (%)>
96.7

$$$$
>  <Chem Smiles>
C=C1C(=O)[C@]23[C@H](O)[C@H]1CC[C@H]2[C@@]12CO[C@]3(O)[C@@H](O)[C@@H]1C(C)(C)CC[C@@H]2O

>  <Subject Of Test>
U2OS

>  <cell viability (%)>
94.4

$$$$
>  <Chem Smiles>
S=C(NCCc1ccccn1)Nc1ccc(Br)cn1

>  <Subject Of Test>
U2OS

>  <cell viability (%)>
104

$$$$
>  <Chem Smiles>
Cc1c(NC(=O)N2CCOCC2)ccc2c1c1ccccc1n2C(C)C

>  <Subject Of Test>
U2OS

>  <cell viability (%)>
98.6

$$$$
>  <Chem Smiles>
CCCN1CCCC[C@H]1C(=O)Nc1c(C)cccc1C

>  <Subject Of Test>
U2OS

>  <cell viability (%)>
99

$$$$
>  <Chem Smiles>
COc1cc(OC)c(NC(=O)Nc2cc(C)on2)cc1Cl

>  <Subject Of Test>
U2OS

>  <cell viability (%)>
98.4

$$$$

----------
- Test system: A549-ACE2 infected with SARS-CoV-2
- Protocol Description: cell count relative to DMSO; higher = less toxic
- Assay Context: 3 µM; 24 h

>  <Compound>
CC(C)(Cc1ccc2ccccc2c1)NC[C@@H](O)COc1cccc(Cl)c1C#N

>  <Subject Of Test>
A549-ACE2 infected with SARS-CoV-2

>  <cell count [%]>
113

$$$$
>  <Compound>
C=C1C(=O)[C@]23[C@H](O)[C@H]1CC[C@H]2[C@@]12CO[C@]3(O)[C@@H](O)[C@@H]1C(C)(C)CC[C@@H]2O

>  <Subject Of Test>
A549-ACE2 infected with SARS-CoV-2

>  <cell count [%]>
98

$$$$
>  <Compound>
CN1CC2c3ccccc3Oc3ccc(Cl)cc3C2C1 (centres undefined)

>  <Subject Of Test>
A549-ACE2 infected with SARS-CoV-2

>  <cell count [%]>
118

$$$$
>  <Compound>
N#CC[C@@H](C1CCCC1)n1cc(-c2ncnc3[nH]ccc23)cn1 [ruxolitinib-(S)]

>  <Subject Of Test>
A549-ACE2 infected with SARS-CoV-2

>  <cell count [%]>
100

$$$$

----------
- Tested on: Calu-3
- Protocol Description: cell viability relative to DMSO; higher = less toxic
- Assay Context: 72 h; 100 nM
The entries below come with measured cell viability values attached.
Measured Parameter: cell viability (%)

>  <Compound>
Cn1c2cc([S+](C)[O-])sc2c2cnn(Cc3cccc(N)c3)c(=O)c21 (centres undefined)

>  <Measured Parameter>
cell viability

>  <Unit Spec>
%

>  <Data Value>
96.7

$$$$
>  <Compound>
CCCN1CCCC[C@H]1C(=O)Nc1c(C)cccc1C

>  <Measured Parameter>
cell viability

>  <Unit Spec>
%

>  <Data Value>
90.7

$$$$
>  <Compound>
CC[C@H](C)C(=O)O[C@H]1C[C@H](O)C=C2C=C[C@H](C)[C@H](CC[C@@H](O)C[C@@H](O)CC(=O)O)[C@H]21 [PRAVASTATIN SODIUM]

>  <Measured Parameter>
cell viability

>  <Unit Spec>
%

>  <Data Value>
93.3

$$$$
>  <Compound>
NCc1cc(O)no1

>  <Measured Parameter>
cell viability

>  <Unit Spec>
%

>  <Data Value>
98.3

$$$$
>  <Compound>
COc1cc2c(cc1OC)-c1c(C)c3ccc(OC)c(OC)c3c[n+]1CC2 [dehydrocorydaline]

>  <Measured Parameter>
cell viability

>  <Unit Spec>
%

>  <Data Value>
91.2

$$$$
>  <Compound>
CCCCOc1ccc(CC/C=C2\SC(=O)N(CCN)C2=O)cc1

>  <Measured Parameter>
cell viability

>  <Unit Spec>
%

>  <Data Value>
87.1

$$$$
>  <Compound>
S=C(NCCc1ccccn1)Nc1ccc(Br)cn1

>  <Measured Parameter>
cell viability

>  <Unit Spec>
%

>  <Data Value>
101

$$$$
>  <Compound>
CC(C)N1CCN(c2ccc(C(=O)c3c(-c4ccc(O)cc4)sc4cc(O)ccc34)cc2)CC1

>  <Measured Parameter>
cell viability

>  <Unit Spec>
%

>  <Data Value>
101

$$$$
>  <Compound>
CC(C)[N+](C)(CCOC(=O)C1c2ccccc2Oc2ccccc21)C(C)C

>  <Measured Parameter>
cell viability

>  <Unit Spec>
%

>  <Data Value>
108

$$$$

----------
- System: A549-ACE2
- Protocol Description: drug-induced phospholipidosis relative to tamoxifen; higher = more phospholipidosis
- Assay Context: 30 µM; 24 h
This listing pairs compounds with measured drug-induced phospholipidosis.

>  <Compound>
CCOc1cn(-c2ccc(F)cc2C)nc1C(=O)Nc1ccc(Oc2ccnc3cc(OC)c(OC)cc23)c(F)c1 [LDC1267]

>  <drug-induced phospholipidosis, %>
35

$$$$
>  <Compound>
Cc1csc(NC(=O)CSc2ccc(-c3ccccc3)nn2)n1

>  <drug-induced phospholipidosis, %>
7.11

$$$$
>  <Compound>
C[C@@H]1CN(CCCn2c3ccccc3c3ccccc32)C[C@H](C)N1 [rimcazole]

>  <drug-induced phospholipidosis, %>
118

$$$$
>  <Compound>
O=C1C=C2C=C[C@@H]3C[C@@]2(O1)[C@H]1CCCCN31 [securinine]

>  <drug-induced phospholipidosis, %>
3.11

$$$$

----------
- Tested on: Caco-2
- Protocol Description: cell viability relative to DMSO; higher = less toxic
- Assay Context: 72 h; 10 nM
Measured Parameter: cell viability (%)

>  <Compound>
CCCn1c(=O)[nH]c2nc(-c3ccc(S(=O)(=O)O)cc3)[nH]c2c1=O

>  <Unit Spec>
%

>  <Data Value>
94.6

$$$$
>  <Compound>
CN1Cc2c(N)cccc2C(c2ccccc2)C1 (centres undefined)

>  <Unit Spec>
%

>  <Data Value>
95

$$$$
>  <Compound>
CC(C)(CCCCCC(O)CCCCCC(C)(C)C(=O)O)C(=O)O

>  <Unit Spec>
%

>  <Data Value>
95.6

$$$$
>  <Compound>
CCCSc1ccc2[nH]c(NC(=O)OC)nc2c1

>  <Unit Spec>
%

>  <Data Value>
98.6

$$$$
>  <Compound>
CC(COc1ccccc1Cc1ccccc1)N1CCCCC1 (centres undefined)

>  <Unit Spec>
%

>  <Data Value>
106

$$$$
>  <Compound>
O=c1cc(N2CCOCC2)oc2c(-c3cccc4c3sc3ccccc34)cccc12

>  <Unit Spec>
%

>  <Data Value>
89.2

$$$$
>  <Compound>
CCOC(=O)c1ccc(C#Cc2ccc3c(c2)C(C)(C)CCS3)nc1

>  <Unit Spec>
%

>  <Data Value>
96.3

$$$$
>  <Compound>
CCn1c(=O)c(-c2cc[nH]n2)cc2c(C)nc(N)nc21

>  <Unit Spec>
%

>  <Data Value>
96.7

$$$$
>  <Compound>
CCCCc1nc(-c2ccc(OCCCN(CC)CC)cc2)cn1-c1ccc(Oc2ccc(Cl)cc2)cc1

>  <Unit Spec>
%

>  <Data Value>
97

$$$$

----------
- System: Caco-2
- Protocol Description: cell viability relative to DMSO; higher = less toxic
- Assay Context: 72 h; 1 nM
Recorded measurements of cell viability, one per entry

>  <Compound>
N[C@@H](C(=O)O)c1cc(O)ccc1Cl

>  <cell viability, %>
94.2

$$$$
>  <Compound>
Cc1ccc(NCCCc2ccccc2)c(N)c1

>  <cell viability, %>
89.4

$$$$
>  <Compound>
CC[C@H](C)[C@H](N)C(=O)O

>  <cell viability, %>
88.4

$$$$
>  <Compound>
C[C@H](Cc1ccc(O)c(O)c1)[C@@H](C)Cc1ccc(O)c(O)c1

>  <cell viability, %>
88.3

$$$$
>  <Compound>
CC1=C(C(=O)O)N2C(=O)[C@@H](NC(=O)[C@H](N)c3ccccc3)[C@H]2SC1

>  <cell viability, %>
95.2

$$$$
>  <Compound>
O=C(NC(Cc1cc(=O)[nH]c2ccccc12)C(=O)O)c1ccc(Cl)cc1 (stereo unspecified) [rebamipide]

>  <cell viability, %>
92.6

$$$$
>  <Compound>
C[C@@H]1CN(CCCn2c3ccccc3c3ccccc32)C[C@H](C)N1

>  <cell viability, %>
96

$$$$
>  <Compound>
CNS(=O)(=O)CCc1ccc2[nH]cc(C3CCN(C)CC3)c2c1

>  <cell viability, %>
97.5

$$$$
>  <Compound>
CC(C)c1cc(-c2ccc(F)c3ccccc23)nc(N)n1

>  <cell viability, %>
90.7

$$$$
>  <Compound>
CNCc1cc(-c2ccccc2F)n(S(=O)(=O)c2cccnc2)c1

>  <cell viability, %>
97.5

$$$$
>  <Compound>
COc1cc(Cc2cnc(N)nc2N)c(C(C)C)cc1OC

>  <cell viability, %>
94.9

$$$$
>  <Compound>
COc1ccc(-c2cc(C(F)F)nn2-c2ccc(S(N)(=O)=O)cc2)cc1F

>  <cell viability, %>
99.9

$$$$
>  <Compound>
CC(C)NC(=N)NC(=N)Nc1ccc(Cl)cc1

>  <cell viability, %>
101

$$$$
>  <Compound>
CCOC(=O)/C=C(C)/C=C/C=C(C)/C=C/c1c(C)cc(OC)c(C)c1C [etretinate]

>  <cell viability, %>
100

$$$$
>  <Compound>
C=C1C(=O)[C@]23[C@H](O)[C@H]1CC[C@H]2[C@@]12CO[C@]3(O)[C@@H](O)[C@@H]1C(C)(C)CC[C@@H]2O

>  <cell viability, %>
97.7

$$$$
>  <Compound>
O=C(OC[C@H]1O[C@@H](OC(=O)c2cc(O)c(O)c(OC(=O)c3cc(O)c(O)c(O)c3)c2)[C@H](OC(=O)c2cc(O)c(O)c(OC(=O)c3cc(O)c(O)c(O)c3)c2)[C@@H](OC(=O)c2cc(O)c(O)c(OC(=O)c3cc(O)c(O)c(O)c3)c2)[C@@H]1OC(=O)c1cc(O)c(O)c(OC(=O)c2cc(O)c(O)c(O)c2)c1)c1cc(O)c(O)c(OC(=O)c2cc(O)c(O)c(O)c2)c1

>  <cell viability, %>
99.6

$$$$
